Assayed Target: Akt1 (Homo sapiens)
Sequence (P31749 whole entry): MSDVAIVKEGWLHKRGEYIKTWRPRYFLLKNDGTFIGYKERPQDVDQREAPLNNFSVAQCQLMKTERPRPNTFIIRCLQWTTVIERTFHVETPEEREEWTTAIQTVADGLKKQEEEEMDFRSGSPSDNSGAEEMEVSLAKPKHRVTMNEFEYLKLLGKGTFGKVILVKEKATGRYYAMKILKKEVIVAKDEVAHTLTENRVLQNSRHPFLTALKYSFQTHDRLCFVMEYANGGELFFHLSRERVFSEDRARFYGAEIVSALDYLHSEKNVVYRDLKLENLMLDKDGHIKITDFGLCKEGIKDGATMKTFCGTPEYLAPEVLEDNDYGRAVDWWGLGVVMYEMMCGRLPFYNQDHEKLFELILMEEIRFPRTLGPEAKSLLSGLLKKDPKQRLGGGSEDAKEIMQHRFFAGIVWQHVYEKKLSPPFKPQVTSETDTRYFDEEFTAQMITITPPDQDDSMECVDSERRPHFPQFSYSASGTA
Assay Name: Akt1 inhibition, Z'-LYTE kit fluorescent-enzymatic assay
Format: biochemical
Details: Table 2, derivatives of Compound 1; read-out: IC50
Description: Here the top 4000 compounds out of 50000 docked compounds were selected using FlexX and Drugscore (BioSolvIT). The top 4000 docked structures were further evaluated and ranked according to Goldscore and Chemscore functions (CSCORE). […] The inhibitory activity was evaluated for the selected compounds by using Z'-LYTE™ kit assay provided by Invitrogen Corporation (19). […] The Ki and the Km(app) were calculated at fixed inhibitor concentrations, as reported in the text. […]
Attribute Measured: IC50
Kindly report the value followed by its unit.

{"columns": ["Molecule", "IC50"],
 "data": [
  ["CC1=C(C#N)c2nc(N)c(C#N)c(C)c2/C1=C/c1ccc(-c2ccc(C(=O)O)c(Cl)c2)o1 [Compound 1]", "2.6 µM"]
]}

What is its IC50 for Akt1 (Homo sapiens)? Entry: CC1=C(C#N)c2nc(N)c(C#N)c(C)c2C1=Cc1ccc(-c2cccc(C(=O)O)c2)o1 [Compound 5]
60.2 µM

###

// endpoint pKi / system Akt1 (Homo sapiens, UniProt P31749)
# log scale: pKi equals minus log10 of the concentration in mol/L

{"columns": ["Molecule", "Value"],
 "data": [
  ["CC1=C(C#N)c2nc(N)c(C#N)c(C)c2/C1=C/c1ccc(-c2ccc(C(=O)O)c(Cl)c2)o1 [Compound 1]", 5.96],
  ["O=C(/C=C/c1nc2ccccc2[nH]1)c1c(O)nc2ccc(Cl)cc2c1-c1ccccc1 [Compound 2]", 5.41]
]}

Let's switch to this molecule now.
Using the record for O=C(O)c1cc(-c2ccc(C=C3C(=O)c4ccccc4C3=O)o2)ccc1O [Compound 3] , report its pKi.
4.68

###

Assayed Target: UniProtKB P31749
Assay Name: Akt1 inhibition, Z'-LYTE kit fluorescent-enzymatic assay
Type: biochemical
Details: FIG. 2 legend; read-out: IC50 value
Attribute Measured: pIC50
A value of pIC50 is the negative decimal logarithm of a concentration given in moles per litre.

{"columns": ["Smiles Code", "Value"],
 "data": [
  ["O=C(/C=C/c1nc2ccccc2[nH]1)c1c(O)nc2ccc(Cl)cc2c1-c1ccccc1", 5.35]
]}

Okay, now this compound:
Data request, read-out pIC50, for O=C(O)c1cc(-c2ccc(C=C3C(=O)c4ccccc4C3=O)o2)ccc1O
4.60

Reference for the values: patent US20120190707A1
